Reference source: the supplement of paper PMC7411054

Tested on: HepG2-ACTB-RAB5A
Assay: phenotypically active (imaging signature differs from DMSO and reproducible) at any of 0.3-9 uM (binary (1 = active, 0 = inactive)); higher = active
Conditions: treatment time: 24 h
Structures can show the parent of a compound that is named as a salt.
QUANTITY_KIND: phenotypically active
Lab note: record the figure alone, no unit after it.

>>> measured_result("CCCCN1CCCCC1C(=O)Nc1c(C)cccc1C (stereo not given)")
0
>>> measured_result("CCN1CCN(c2ccc(Nc3cc(N(C)C(=O)Nc4c(Cl)c(OC)cc(OC)c4Cl)ncn3)cc2)CC1")
0
>>> measured_result("COC(=O)C1CC23C=CCN4CCC5(c6ccccc6NC15[C@H]2C)C43 (stereo not given in full) [Vindolinine dichlorhydrate]")
0
>>> measured_result("CN(C)CCCN1c2ccccc2CCc2ccc(Cl)cc21")
1
>>> measured_result("CC(C)(C)Nc1nc(Nc2ccc(C(N)=O)cc2)cc(N)c1C#N")
1
>>> measured_result("N#C/C(=C(/N)Sc1ccc(N)cc1)c1ccccc1C(F)(F)F")
1
>>> measured_result("O=C1CCc2c(ccc3ccccc23)O1")
0
>>> measured_result("COC(=O)[C@H]1[C@H]2C[C@H]3c4[nH]c5ccccc5c4CCN3C[C@@H]2CC[C@@H]1O [Corynanthine hydrochloride]")
0

// field: phenotypically active; key: COc1cc(OC)c2c(=O)[nH]c(-c3cc(C)c(OCCO)c(C)c3)nc2c1 ; value = 1

// field: phenotypically active; key: CCCCCCCN(CC)CCCC(O)c1ccc(NS(C)(=O)=O)cc1 (stereo not given) [ibutilide] ; value = 0

###

Test system: WPMY1-ACTB-RAB5A
Experiment: phenotypically active (imaging signature differs from DMSO and reproducible) at any of 0.3-9 uM (binary (1 = active, 0 = inactive)); higher = active
Details: treatment time: 24 h
QUANTITY_KIND: phenotypically active

Worked set:
>>> measured_result("CCCCCCCCCCNCCSSCc1ccc(Cl)cc1")
"0 (inactive)"
>>> measured_result("CN1[C@@H]2CC[C@H]1C[C@@H](OC(c1ccccc1)c1ccccc1)C2 [benztropine]")
"0 (inactive)"
>>> measured_result("CC(C)(C(=O)O)c1ccc(C(O)CCCN2CCC(C(O)(c3ccccc3)c3ccccc3)CC2)cc1 (stereo not drawn) [fexofenadine]")
"0 (inactive)"
>>> measured_result("CCN1CCN(C(c2cccnc2)c2cc(Cl)c3cccnc3c2O)CC1 (stereo not drawn)")
"1 (active)"
>>> measured_result("C[C@@H](CO)CCC[C@@H](C)[C@H]1CC[C@H]2[C@@H]3CC=C4C[C@@H](O)CC[C@]4(C)[C@H]3CC[C@]12C [27-Hydroxycholesterol]")
"0 (inactive)"

// field: phenotypically active; key: Cn1cnc([N+](=O)[O-])c1Sc1ncnc2nc[nH]c12 [azathioprine] ; value = 0 (inactive)

###

Test system: WPMY1-CANX-COX4
Assay: phenotypically active (imaging signature differs from DMSO and reproducible) at any of 0.3-9 uM (binary (1 = active, 0 = inactive)); higher = active
Conditions: treatment time: 24 h
Structures can show the parent of a compound that is named as a salt.
QUANTITY_KIND: phenotypically active
Lab note: record the figure alone, no unit after it.

>>> measured_result("Cc1ccc(OCCSc2ncccn2)c(Br)c1 [ZLN 024 hydrochloride]")
0

Record COc1ccc2[nH]c(S(=O)Cc3ncc(C)c(OC)c3C)nc2c1 (stereo not drawn) ; system WPMY1-CANX-COX4; phenotypically active = 0

Record CCCSc1nc2c(c(=O)n1-c1ccccc1)SCC2 ; system WPMY1-CANX-COX4; phenotypically active = 0
